Reference source for all entries: patent US9549926B2

Assay: Free plasma concentration in the rat PAH study
Format: in vivo
Conditions: Sprague-Dawley, AMB 10 mpk, separately or with TAD (both cases), read-out: free or unbounded plasma concentration
Parameter Measured: concentration at 3 weeks

# concentration at 3 weeks (molecule: COC(c1ccccc1)(c1ccccc1)[C@H](Oc1nc(C)cc(C)n1)C(=O)O [ambrisentan] ) is ~104 nM

* * *

Test: Free plasma concentration in the rat PAH study
Format: in vivo
Conditions: Sprague-Dawley, TAD (10 mpk), administered with AMB, 1 mpk or 10 mpk, read-out: free or unbounded plasma concentration
Parameter Measured: concentration at 3 weeks

# concentration at 3 weeks (compound: CN1CC(=O)N2[C@H](c3ccc4c(c3)OCO4)c3[nH]c4ccccc4c3C[C@@H]2C1=O [tadalafil] ) is ~26 nM
